Measured values drawn from paper PMC5540273 for this set.

tested on: PIM3; conditions: concentration: 1 μM, replicates: in singlicate; n = 1;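 also: KINOMEscan kinase panel screen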
quantity_kind: %Inh (%)

In [3]: df
Out[3]:
                                    molecule  meas_value
 0  Cc1ccc(-c2cc(-c3c[nH]nc3-c3ccccn3)ccn2)cc1 [GW684088]           2
 1  COc1ccc(Nc2nccc(-c3cccc(NC(=O)c4cc5cc(F)ccc5[nH]4)c3)n2)cc1 [GSK1229782]          30
 2  Cc1ccc(C(=O)Nc2ccc(Nc3ccnc4cc(-c5ccccn5)ccc34)cc2O)cc1.Cl [GW440146]          12
 3  O=C(Nc1ccc2c(c1)OCO2)NC1CCN(c2ccnc(Nc3ccc(F)cc3)n2)C1 (stereo not shown) [GSK1379724]           0
 4  CC(C)(C)c1ccc(C(=O)Nc2cn3cc(-c4cccnc4)ccc3n2)cc1          44
 5  Cn1ccc2ncnc(Oc3cccc(C(=O)Nc4ccccc4)c3)c21          14
 6  Cc1cc(N2Cc3ccccc3C2)nc(Nc2ccc(S(=O)(=O)N3CCOCC3)cc2)n1.Cl [GSK1669917]           0
 7  Cl.O=C(Nc1cccc(-c2nn3ncccc3c2-c2ccnc(Nc3cccnc3)n2)c1)c1c(F)cccc1F [GSK312879]           0
 8  COc1ccc(Nc2nccc(NCCNC(=O)Nc3ccccc3F)n2)cc1 [GSK1379901]           0
 9  Cl.NC(=O)c1cccc(Nc2nccc(Nc3ccc(Oc4cccc(Cl)c4)c(Cl)c3)n2)c1 [GW659008]           1
10   O=C(Nc1ccccc1)Nc1cccc(Oc2ccc3nccn3n2)c1           0
11  Cc1cccc(-c2cc(Nc3ccncc3)c3ccccc3n2)n1 [GSK223675]          19
12  COc1ccc(CNC(=O)NC2CCN(c3ccnc(Nc4cc(OC)c(OC)c(OC)c4)n3)C2)cc1 (stereo not shown) [GSK1379748]           0
13    CCn1c(-c2ccccn2)nc2cnccc21 [SB-736398]           0
14  Cc1cccc(-c2nc(C)cc(Nc3ccncc3)n2)n1 [GSK257997]          37
15  Cn1cncc1-c1ccc2ncnc(Nc3ccc(OCc4ccccc4)cc3)c2c1 [GW320571]           0
16  Cc1nnc(-c2ccc3occ(-c4ccc(S(C)=O)cc4)c3c2)[nH]1 (stereo not shown)          35
17    Cc1ccccc1-n1cnc2c(N)ncnc21 [SKF-97510]           2
18  COc1ccc2nc(-c3cccc(C)n3)nc(Nc3ccncc3)c2c1 [GSK204919]           0

###

test system: MAPKAPK2; details: concentration: 1 μM, replicates: in singlicate; n = 1
quantity_kind: %Inh (%)

>>> df
                                smiles_input  quantity_kind  readout_unit  meas_value
 0  Cc1cccc(-c2nc(Nc3cccc(C(N)=O)c3)c3ccccc3n2)n1           %Inh             %           0
 1     Cc1cccc(-c2cc(Nc3ccncc3)c3ccccc3n2)n1           %Inh             %          13
 2  Cc1cc(N2Cc3ccccc3C2)nc(Nc2ccc(S(=O)(=O)N3CCOCC3)cc2)n1.Cl           %Inh             %           4
 3   O=C(Nc1ccccc1)Nc1cccc(Oc2ccc3nccn3n2)c1           %Inh             %           0
 4  COC(=O)c1c(-c2ccccc2)c2cc(C(=O)O)ccc2c(=O)n1Cc1ccccc1           %Inh             %           3
 5  CC(C)(C)c1ccc(C(=O)Nc2cn3cc(Cl)ccc3n2)cc1           %Inh             %           0
 6  Cc1cccc(-c2nc(-c3ccc(S(C)(=O)=O)cc3)sc2-c2ccnc(NCCc3ccccc3)c2)c1           %Inh             %           0
 7  O=C(O)COc1ncnc2cc(-c3ccc4[nH]ncc4c3)sc12           %Inh             %           0
 8  CN(C)CCN(C)C(=O)c1cc(-c2ccncc2)c(-c2ccc(Cl)c(O)c2)o1.Cl.Cl           %Inh             %           2
 9  Cn1ccc2ncnc(Oc3ccc(NC(=O)Nc4ccccc4)cc3)c21           %Inh             %           0
10  Clc1cc(Cl)cc(Nc2ccnc(Nc3cc(Cl)cc(Cl)c3)n2)c1           %Inh             %           0
11     Cc1cccc(-c2nc(Nc3ccncc3)c3ccccc3n2)n1           %Inh             %           0
12  O=c1cc(N2CCOCC2)nc2n(Cc3cccc(Cl)c3Cl)ccn12           %Inh             %           5
13               CCn1c(-c2cccnc2O)nc2cnccc21           %Inh             %          16
14    Fc1cccc(COc2nnc(-c3ccc4c(c3)CCO4)o2)c1           %Inh             %           0
15  COc1ccc2nc(-c3cccc(C)n3)nc(Nc3ccncc3)c2c1           %Inh             %          17
16  O=C(Nc1n[nH]c2nc(-c3nccs3)c(Br)cc12)C1CCCC1           %Inh             %          22
17                     NC(=O)c1nnc2ccccc2c1N           %Inh             %           0
18  COc1cccc(-c2cc(-c3c[nH]nc3-c3ccccn3)ccn2)c1           %Inh             %           0
19  COc1cc2ncnc(Nc3ccc4nc(-c5ccccc5)[nH]c4c3)c2cc1OC.Cl           %Inh             %          24
